species on record: Cavia porcellus; assay: Selectivity ratio of Ki for delta opioid receptor in guinea pig forebrain to Ki for kappa opioid receptor in guinea pig cerebellum; assay type: tissue-based
Measurement label: Ratio Ki
The response must contain the number and no unit.

(Q) Query Ratio Ki for Cc1occc1C(=O)/C=C/c1cc2c(n1C)[C@@H]1Oc3c(O)ccc4c3[C@@]13CCN(CC1CC1)[C@H](C4)[C@]3(O)C2
(A) 1.3

(Q) Query Ratio Ki for Cn1c(/C=C/C(=O)c2ccccc2)cc2c1[C@@H]1Oc3c(O)ccc4c3[C@@]13CCN(CC1CC1)[C@H](C4)[C@]3(O)C2
(A) 8

(Q) Query Ratio Ki for CCC/C=C/c1cc2c(n1C)[C@@H]1Oc3c(O)ccc4c3[C@@]13CCN(CC1CC1)[C@H](C4)[C@]3(O)C2
(A) 0.9

(Q) Query Ratio Ki for CCCCCC(=O)/C=C/c1cc2c(n1C)[C@@H]1Oc3c(O)ccc4c3[C@@]13CCN(CC1CC1)[C@H](C4)[C@]3(O)C2
(A) 2.9

(Q) Query Ratio Ki for Cn1c(CCC(=O)CCc2ccccc2)cc2c1[C@@H]1Oc3c(O)ccc4c3[C@@]13CCN(CC1CC1)[C@H](C4)[C@]3(O)C2
(A) 4.6

(Q) Query Ratio Ki for Cn1c(/C=C/C(=O)CCc2ccccc2)cc2c1[C@@H]1Oc3c(O)ccc4c3[C@@]13CCN(CC1CC1)[C@H](C4)[C@]3(O)C2
(A) 1.9

(Q) Query Ratio Ki for Cn1c(/C=C/C(=O)Cc2ccccc2)cc2c1[C@@H]1Oc3c(O)ccc4c3[C@@]13CCN(CC1CC1)[C@H](C4)[C@]3(O)C2
(A) 1.8

Reference source for all entries: ChEMBL document CHEMBL1221313
